All figures here come from the nanobody polyreactivity screen of Harvey et al. (2022).

# protocol.summary: yeast display, Sf9 membrane polyspecificity reagent, FACS + sequencing; frameworks hold sequencing errors
measured.property: polyreactivity (PSR sort gate)

Consider the reported polyreactivity (PSR sort gate) for these sequences:
{"columns": ["chain", "measurement"],
 "data": [
  ["QVQLVESGGGLVQAGGSLRLSCAASGGIFDYYAMGWYRQAPGKERELVAAIRGGGSTNYADSVKGRFTISRDNAKNTVYLQMNSLKPEDTAVYYCAKRAGPEYDYWGQGTQVTVSS", "low polyreactivity"],
  ["QVQLVESGGGIVQAGGSLRISCAASGYNFRYNAMGWYRQAPGKERELVATITRGGSTNYPDSVKGRFTISRDNAKNTVYLQMNSMKPEDTAVYYCKKEAAPLGFVPSYYGRDYWGQGTQVTVSS", "low polyreactivity"],
  ["QVQLVESGAGLVQAGGSLRVSCAASGRTFAHYAMGWYRQAPGKERELVAAISSGASTNYADSVKGRFTISRDNAKNTVYLQMNSLKPEDTAVYYCAKQAKYHQGTYDYWGQGTQVTVSS", "low polyreactivity"],
  ["QVQLVESGGGLVQAGGSLRLSCAASGLTFYTYAMGWYRQAPGKERELVAAITYSGGRTSYADSVKGRFTISRDNAKNTVYLQMNSLKPEDTAVYYCAARTLGRRLDYGYWGQGTQVTVSS", "low polyreactivity"],
  ["QVQLVESGGGLVQAGGSLRLTCAASGRTFRLYAMGWYRQAPGKERELVAAITRGGRTNYADSVKGRFTISRDNAKNTVYLQMNSLKPEDTAVYYCAARYVDRHTDYYYWGQGTQVTVSS", "low polyreactivity"],
  ["QVHLVESGGGLVQAGGSLRLSCAASGRIFNPNAMGWYRQAPGKERELVAAITSGDSTNYADSVKGRFTISRDNAKNTVYLQMNSLKPEDTAVYYCAADWTYPYNSWGQGTQVTVSS", "low polyreactivity"],
  ["QVQLVESGGGLVQAGGSLRLSCAASGSIFYLYAMGWYRPAPGKERELVAAISSGGSTYYADSVKGRFTISRDNAKNTVYLQMNSLKPEDTAVYYCNADSYYYPYDYWGQGTQVTVSS", "low polyreactivity"],
  ["QDQLVESGGGLDQAGGSLRLSCAASGRIFDVYAMGWYRQAPGKERELVAAISWSGSSTYYADSVKGRFTISRDNAKNTVYLQMNSLKPEDTAVYSCATVLRVTRVDYWGQGTQVTVSS", "high polyreactivity"],
  ["QVQLVESGGGLVQAGGSLRLSCAASGSTFWGNAMGWYRQAPGKERELVAAIDWSGGRTYYADSVKGRFTISRDNAKNTVYLQMNSLKPEDTAVYYCATRAWRGYGPYDYWGQGTQVTVSS", "high polyreactivity"],
  ["QVQLLESGGGLVQAGGSLRLSCAASGSIFRGYAMGWYRKAPGKERELVAAINWSGSSTYYADSVKGRFTISRDNAKKTVYLQMNSLKPEDTAVYYCARVYYNRNLGGDYWGQGTQVTVSS", "low polyreactivity"]
]}

Record summary for `QVQLVESGGGLVQAGGSLRLSCAASGSIFPRYVMAWYRQAPGKERELVAAISGSGGSTYYADSVKGRFTISRDNAKNTVYFQMNSLIPEDTAVYYCNKLRRRVNRDIDDYWGQGTQVTVSS` : reported polyreactivity (PSR sort gate) = high polyreactivity
